- assayed-system: PPARγ-RXRα heterodimer (Homo sapiens, UniProt P19793+P37231)
- Construct: 1.4 kb DNA fragment containing PPARγ gene was recovered from the gel; 1.4 kb DNA fragment containing RXRα gene was recovered from the gel
- Sequence (P37231 1-477 isoform P37231-2): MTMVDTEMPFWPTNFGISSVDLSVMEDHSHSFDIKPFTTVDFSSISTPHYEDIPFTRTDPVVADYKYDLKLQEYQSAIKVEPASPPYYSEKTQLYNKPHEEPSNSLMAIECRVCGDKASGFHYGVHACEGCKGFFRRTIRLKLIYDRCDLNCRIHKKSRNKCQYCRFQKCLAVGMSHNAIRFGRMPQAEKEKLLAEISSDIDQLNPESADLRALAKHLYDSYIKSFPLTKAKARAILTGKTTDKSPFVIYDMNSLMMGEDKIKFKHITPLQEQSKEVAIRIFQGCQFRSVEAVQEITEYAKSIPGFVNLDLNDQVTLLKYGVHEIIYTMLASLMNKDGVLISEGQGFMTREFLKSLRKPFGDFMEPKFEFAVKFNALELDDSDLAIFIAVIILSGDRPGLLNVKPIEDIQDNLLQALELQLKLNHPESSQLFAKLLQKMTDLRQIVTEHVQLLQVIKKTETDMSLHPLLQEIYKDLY
- Sequence (P19793 1-462): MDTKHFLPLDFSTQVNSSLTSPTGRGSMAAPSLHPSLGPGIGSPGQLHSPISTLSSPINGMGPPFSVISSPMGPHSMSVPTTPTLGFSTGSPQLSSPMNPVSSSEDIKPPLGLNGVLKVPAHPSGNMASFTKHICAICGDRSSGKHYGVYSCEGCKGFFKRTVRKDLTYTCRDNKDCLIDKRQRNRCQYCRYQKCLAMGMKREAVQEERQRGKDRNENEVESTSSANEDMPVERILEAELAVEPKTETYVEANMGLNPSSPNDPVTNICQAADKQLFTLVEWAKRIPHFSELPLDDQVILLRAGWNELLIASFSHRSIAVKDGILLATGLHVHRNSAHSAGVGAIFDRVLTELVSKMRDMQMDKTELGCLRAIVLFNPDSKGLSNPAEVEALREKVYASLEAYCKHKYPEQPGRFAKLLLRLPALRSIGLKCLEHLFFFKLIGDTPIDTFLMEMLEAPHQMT
- procedure-details: PPARγ-RXRα heterodimer ligand activity (luciferase reporter, PPARγ:RXRα:4ERPP/CHO-K1 cells)
- protocol-conditions: 48 hrs, concentration for 50% of the maximum fold induction
pEC50: −log10 of the molar value.
Entries and their pEC50 values follow.
metric-name: pEC50

[[record]]
molecule = "O=C(O)c1ccc(-c2cc(-c3ccc(C(F)(F)F)cc3)on2)cc1 [Example 35]"
metric_name = "pEC50"
reported_result = 8.42

[[record]]
molecule = "CCOC(=O)c1ccc(-c2ccc(-c3ccc(C(F)(F)F)cc3)o2)cc1 [Example 6]"
metric_name = "pEC50"
reported_result = 8.44

[[record]]
molecule = "O=C(O)c1ccc(-c2cc(-c3ccc(C(F)(F)F)cc3)no2)cc1 [Example 26]"
metric_name = "pEC50"
reported_result = 7.64

[[record]]
molecule = "O=C(O)c1ccc(-c2ccc(-c3ccc(Cl)cc3)s2)cc1 [Example 15]"
metric_name = "pEC50"
reported_result = 7.66

[[record]]
molecule = "O=C(O)c1cccc(-c2cc(-c3ccc(Cl)cc3)on2)c1 [Example 29]"
metric_name = "pEC50"
reported_result = 9.23

[[record]]
molecule = "O=C(O)c1ccc(-c2ccc(-c3ccc(C(F)(F)F)cc3)o2)cc1 [Example 10]"
metric_name = "pEC50"
reported_result = 8.42

[[record]]
molecule = "O=C(O)c1ccc(-c2cc(-c3ccc(Cl)cc3)on2)cc1 [Example 30]"
metric_name = "pEC50"
reported_result = 8.22

[[record]]
molecule = "O=C(O)c1cccc(-c2cc(-c3ccc(C(F)(F)F)cc3)no2)c1 [Example 33]"
metric_name = "pEC50"
reported_result = 8.57

[[record]]
molecule = "O=C(O)c1cccc(-c2ccc(-c3ccc(C(F)(F)F)cc3)o2)c1 [Example 9]"
metric_name = "pEC50"
reported_result = 7.27

